- TARGET_OR_TEST_SYSTEM: ERα (Homo sapiens)
- Construct: host or cells: MCF7
- Sequence (P03372 1-595): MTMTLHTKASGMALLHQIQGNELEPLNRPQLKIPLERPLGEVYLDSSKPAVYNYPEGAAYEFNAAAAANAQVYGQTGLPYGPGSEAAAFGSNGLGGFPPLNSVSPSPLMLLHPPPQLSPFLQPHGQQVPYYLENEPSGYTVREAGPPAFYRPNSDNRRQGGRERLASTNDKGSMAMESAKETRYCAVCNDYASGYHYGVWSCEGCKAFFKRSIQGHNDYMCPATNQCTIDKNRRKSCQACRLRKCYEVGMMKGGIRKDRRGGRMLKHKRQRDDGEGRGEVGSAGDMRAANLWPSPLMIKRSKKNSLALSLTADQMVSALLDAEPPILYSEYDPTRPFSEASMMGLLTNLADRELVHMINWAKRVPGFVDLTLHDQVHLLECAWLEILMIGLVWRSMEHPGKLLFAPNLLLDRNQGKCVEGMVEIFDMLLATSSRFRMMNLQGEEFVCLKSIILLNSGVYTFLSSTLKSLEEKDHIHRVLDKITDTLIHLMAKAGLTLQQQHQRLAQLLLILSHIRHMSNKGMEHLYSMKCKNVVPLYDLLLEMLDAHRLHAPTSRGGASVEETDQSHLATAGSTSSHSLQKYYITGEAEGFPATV
- TEST_METHOD_NOTES: Estrogen receptor degradation activity: breast cancer cell ERα in cell western assay (MCF7 cells)
- Format: cell-based
- TEST_SETTINGS: 0.3 μM, 4 hours, relative to fulvestrant 0.1 μM positive control
ASSAY_READOUT: % Degradation At 0.3 μM
Units required after the number.

Look at this compound and give its reported % Degradation At 0.3 μM. O=C(O)c1ccc2c(c1)CCCC(C1C[C@H]3CCC[C@H]3C1)=C2c1ccc(CC2CN(CCCF)C2)cc1 (single isomer, unassigned)
86%

// % Degradation At 0.3 μM lookup, key: O=C(O)c1ccc2c(c1)CCCC(c1ccc(Cl)cc1Cl)=C2c1ccc(C(O)C2CN(CCCF)C2)cc1 (single isomer, unassigned) [Example 41]
95%

Value lookup for % Degradation At 0.3 μM; key = `Cc1c(Cl)cccc1C1=C(c2ccc(CC3CN(CCCF)C3)cc2)c2ccc(C(=O)O)cc2CCC1.Cl`
87%

Bench note: what % Degradation At 0.3 μM did CC(O)(c1ccc(C2=C(c3ccc(Cl)cc3Cl)CCCc3cc(C(=O)O)ccc32)cc1)C1CN(CCCF)C1.Cl (single isomer, unassigned; isomer 2) [Example 236] show?
100%

I would be grateful if you could share the reported % Degradation At 0.3 μM for `CC1(C)CCC(C2=C(c3ccc(CC4CN(CCCF)C4)cc3)c3ccc(C(=O)O)cc3CCC2)CC1.Cl` .
85%

What value of measured % Degradation At 0.3 μM is listed for `C[C@H]1CC[C@@H](C2=C(c3ccc(CC4CN(CCCF)C4)cc3)c3ccc(C(=O)O)cc3CCC2)CC1` ?
80%

Name the recorded % Degradation At 0.3 μM for `Cl.O=C(O)c1ccc2c(c1)CCCC(c1ccc(Cl)cc1Cl)=C2c1ccc(CC2CN(CCCF)C2)cc1F` .
93%

Which % Degradation At 0.3 μM value is on record for `O=C(O)c1ccc2c(c1)CCCC(c1ccc(F)cc1F)=C2c1ccc(CC2CN(CCC(F)F)C2)cc1` ?
84%
